Where do these numbers come from? They come from PubChem BioAssay AID1963830.

Test system: 922993-354-T-J3-PDC complex spheroid viability;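 further: spheroids exposed to the agents for one week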
assayDetails: Anticancer human tumor 922993-354-T-J3-PDC patient-derived endometrial carcinoma cell line growth inhibition [POLQ]; active means viability on the fitted dose curve at most 10% of control; inactive means the rest
experimentalSetup: second compound 0.1 µM; first compound 10 µM
Outcomes: active, inactive

1. C#Cc1c(F)ccc2cc(O)cc(-c3ncc4c(N5CC6CCC(C5)N6)nc(OCC56CCCN5CC(F)C6)nc4c3F)c12 (stereo unspecified) + Cc1cccc(N(C)C(=O)C2C(O)CCN2c2nc(C)cc(C(F)(F)F)c2C#N)c1	inactive
2. CC1COCCN1c1cc(-c2ccnn2C)c2ccnc(-c3ccn[nH]3)c2n1 (stereo unspecified) + Nc1ccc(C#CCN(C(=O)Cc2ncc(C(F)(F)F)cc2C(F)(F)F)c2ccc(F)cc2)nn1	inactive
3. O=C(Nc1ccc(O)c(NS(=O)(=O)c2ccc(F)cc2)c1)c1ccc(-c2ccccc2)cc1 + Cc1cccc(N(C)C(=O)C2C(O)CCN2c2nc(C)cc(C(F)(F)F)c2C#N)c1	inactive
4. CC1COCCN1c1cc(C2(S(C)(=N)=O)CC2)nc(-c2ccnc3[nH]ccc23)n1 (stereo unspecified) + COC1C(OC(N)=O)C(O)C(Oc2ccc3c(O)c(NC(=O)c4ccc(O)c(CC=C(C)C)c4)c(=O)oc3c2C)OC1(C)C	inactive
5. COc1cccc2c1C(=O)c1c(O)c3c(c(O)c1C2=O)CC(O)(C(=O)CO)CC3OC1CC(N)C(O)C(C)O1 (stereo unspecified) + COC1C(OC(N)=O)C(O)C(Oc2ccc3c(O)c(NC(=O)c4ccc(O)c(CC=C(C)C)c4)c(=O)oc3c2C)OC1(C)C	inactive
6. CCc1cc2c(N3CCc4c(cc(Cn5ccnc5)cc4-c4cn(C)nc4C(F)(F)F)C3=O)ccnc2c(OC)n1 + Nc1ccc(C#CCN(C(=O)Cc2ncc(C(F)(F)F)cc2C(F)(F)F)c2ccc(F)cc2)nn1	inactive
7. COc1cc2cc(C(=O)CCC(=O)O)sc2cc1OC + COC1C(OC(N)=O)C(O)C(Oc2ccc3c(O)c(NC(=O)c4ccc(O)c(CC=C(C)C)c4)c(=O)oc3c2C)OC1(C)C	inactive
8. C#Cc1c(F)ccc2cc(O)cc(-c3ncc4c(N5CC6CCC(C5)N6)nc(OCC56CCCN5CC(F)C6)nc4c3F)c12 (stereo unspecified) + COC1C(OC(N)=O)C(O)C(Oc2ccc3c(O)c(NC(=O)c4ccc(O)c(CC=C(C)C)c4)c(=O)oc3c2C)OC1(C)C	inactive
9. CCc1cc2c(N3CCc4c(cc(Cn5ccnc5)cc4-c4cn(C)nc4C(F)(F)F)C3=O)cc(C)nc2c(OC)n1 + Cc1cccc(N(C)C(=O)C2C(O)CCN2c2nc(C)cc(C(F)(F)F)c2C#N)c1	inactive
10. CCCS(=O)(=O)Nc1ccc(F)c(C(=O)c2c[nH]c3ncc(-c4ccc(Cl)cc4)cc23)c1F + Nc1ccc(C#CCN(C(=O)Cc2ncc(C(F)(F)F)cc2C(F)(F)F)c2ccc(F)cc2)nn1	inactive
11. O=C(Nc1ccc(O)c(NS(=O)(=O)c2ccc(F)cc2)c1)c1ccc(-c2ccccc2)cc1 + Nc1ccc(C#CCN(C(=O)Cc2ncc(C(F)(F)F)cc2C(F)(F)F)c2ccc(F)cc2)nn1	inactive
12. Nc1ccn(C2OC(CO)C(O)C2(F)F)c(=O)n1 (stereo unspecified) + Nc1ccc(C#CCN(C(=O)Cc2ncc(C(F)(F)F)cc2C(F)(F)F)c2ccc(F)cc2)nn1	inactive
13. Nc1ccn(C2OC(CO)C(O)C2(F)F)c(=O)n1 (stereo unspecified) + Cc1cccc(N(C)C(=O)C2C(O)CCN2c2nc(C)cc(C(F)(F)F)c2C#N)c1	inactive
14. CCCS(=O)(=O)Nc1ccc(F)c(C(=O)c2c[nH]c3ncc(-c4ccc(Cl)cc4)cc23)c1F + COC1C(OC(N)=O)C(O)C(Oc2ccc3c(O)c(NC(=O)c4ccc(O)c(CC=C(C)C)c4)c(=O)oc3c2C)OC1(C)C	inactive
15. C=CC(=O)N1CCN(c2nc(=O)n(-c3c(C)ccnc3C(C)C)c3nc(-c4c(O)cccc4F)c(F)cc23)C(C)C1 (stereo unspecified) + Cc1cccc(N(C)C(=O)C2C(O)CCN2c2nc(C)cc(C(F)(F)F)c2C#N)c1	inactive
16. CNCc1ccc(-c2[nH]c3cc(F)cc4c3c2CCNC4=O)cc1 + Cc1cccc(N(C)C(=O)C2C(O)CCN2c2nc(C)cc(C(F)(F)F)c2C#N)c1	inactive
17. CC1COCCN1c1cc(C2(O)CC3CCC(C2)O3)c2cnn(-c3ccn[nH]3)c2n1 (stereo unspecified) + Cc1cccc(N(C)C(=O)C2C(O)CCN2c2nc(C)cc(C(F)(F)F)c2C#N)c1	active
18. COc1cc(C2c3cc4c(cc3C(OC3OC5COC(C)OC5C(O)C3O)C3COC(=O)C23)OCO4)cc(OC)c1O (stereo unspecified) + Cc1cccc(N(C)C(=O)C2C(O)CCN2c2nc(C)cc(C(F)(F)F)c2C#N)c1	inactive
19. CCc1cc2c(N3CCc4c(cc(Cn5ccnc5)cc4-c4cn(C)nc4C(F)(F)F)C3=O)cc(C)nc2c(OC)n1 + Nc1ccc(C#CCN(C(=O)Cc2ncc(C(F)(F)F)cc2C(F)(F)F)c2ccc(F)cc2)nn1	inactive
20. CCc1cc2c(N3CCc4c(cc(Cn5ccnc5)cc4-c4cn(C)nc4C(F)(F)F)C3=O)ccnc2c(OC)n1 + COC1C(OC(N)=O)C(O)C(Oc2ccc3c(O)c(NC(=O)c4ccc(O)c(CC=C(C)C)c4)c(=O)oc3c2C)OC1(C)C	inactive
21. O=c1[nH]cc(F)c(=O)[nH]1 + COC1C(OC(N)=O)C(O)C(Oc2ccc3c(O)c(NC(=O)c4ccc(O)c(CC=C(C)C)c4)c(=O)oc3c2C)OC1(C)C	inactive
